Kindly supply the reported pIC50 values for the records listed here.
Target: Phosphatidylinositol 4,5-bisphosphate 3-kinase catalytic subunit delta isoform (Homo sapiens)
Sequence (O00329 whole entry, canonical isoform): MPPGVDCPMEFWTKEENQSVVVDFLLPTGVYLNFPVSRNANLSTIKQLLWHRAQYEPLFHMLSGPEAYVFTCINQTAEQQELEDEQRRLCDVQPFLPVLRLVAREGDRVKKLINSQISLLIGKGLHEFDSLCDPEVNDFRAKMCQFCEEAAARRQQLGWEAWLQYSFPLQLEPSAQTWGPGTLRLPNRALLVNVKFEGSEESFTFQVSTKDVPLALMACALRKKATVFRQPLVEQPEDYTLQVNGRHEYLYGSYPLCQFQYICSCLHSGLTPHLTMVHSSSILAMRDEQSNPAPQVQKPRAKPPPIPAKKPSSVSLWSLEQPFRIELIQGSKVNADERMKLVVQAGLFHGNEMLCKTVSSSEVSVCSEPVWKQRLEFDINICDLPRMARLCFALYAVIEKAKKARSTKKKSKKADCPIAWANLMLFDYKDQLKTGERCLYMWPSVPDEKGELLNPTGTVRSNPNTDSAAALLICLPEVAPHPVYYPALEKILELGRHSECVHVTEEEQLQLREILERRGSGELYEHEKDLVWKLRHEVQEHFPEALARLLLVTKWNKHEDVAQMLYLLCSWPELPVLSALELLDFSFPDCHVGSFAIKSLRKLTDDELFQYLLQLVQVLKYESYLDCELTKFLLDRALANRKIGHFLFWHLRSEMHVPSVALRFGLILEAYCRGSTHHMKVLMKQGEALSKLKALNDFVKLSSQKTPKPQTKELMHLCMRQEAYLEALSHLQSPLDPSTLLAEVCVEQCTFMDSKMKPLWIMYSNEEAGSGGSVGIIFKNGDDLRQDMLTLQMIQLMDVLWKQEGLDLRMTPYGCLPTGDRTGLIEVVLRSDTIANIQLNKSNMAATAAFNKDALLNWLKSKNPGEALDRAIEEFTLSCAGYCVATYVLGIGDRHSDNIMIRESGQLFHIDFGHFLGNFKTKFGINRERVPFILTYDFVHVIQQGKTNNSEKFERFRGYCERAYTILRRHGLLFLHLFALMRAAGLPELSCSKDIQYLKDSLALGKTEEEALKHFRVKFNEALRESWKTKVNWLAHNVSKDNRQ
Test: Inhibition of p110delta (unknown origin) using L-alpha phosphatidylinositol as substrate after 1 hr in presence of [gamma33]-ATP by thin layer chromatographic analysis
Give bare numbers, as −log10 of the molar value.

Past entries and their recorded results:
| smiles_str | pIC50 |
| --- | --- |
| CN(/N=C/c1cnn2ccc(C#N)cc12)S(=O)(=O)c1cc([N+](=O)[O-])ccc1NCCN1CCOCC1 | 7.57 |
| C/C(=N\NS(=O)(=O)c1cc([N+](=O)[O-])ccc1N(C)CCN(C)C)c1cnn2ccc(C#N)cc12 | 6.17 |
| CNCCN(C)c1ccc([N+](=O)[O-])cc1S(=O)(=O)N(C)/N=C/c1cnn2ccc(C#N)cc12 | 6.55 |

Would you kindly look at the next entry?
query: For the compound shown here, "CN(Cc1cccnc1)c1ccc([N+](=O)[O-])cc1S(=O)(=O)N(C)/N=C/c1cnn2ccc(C#N)cc12" , give the reported pIC50.
result: 6.80
